# target_under_test: Cytochrome P450 3A4 (Homo sapiens, UniProt P08684)
# Sequence (P08684 whole entry): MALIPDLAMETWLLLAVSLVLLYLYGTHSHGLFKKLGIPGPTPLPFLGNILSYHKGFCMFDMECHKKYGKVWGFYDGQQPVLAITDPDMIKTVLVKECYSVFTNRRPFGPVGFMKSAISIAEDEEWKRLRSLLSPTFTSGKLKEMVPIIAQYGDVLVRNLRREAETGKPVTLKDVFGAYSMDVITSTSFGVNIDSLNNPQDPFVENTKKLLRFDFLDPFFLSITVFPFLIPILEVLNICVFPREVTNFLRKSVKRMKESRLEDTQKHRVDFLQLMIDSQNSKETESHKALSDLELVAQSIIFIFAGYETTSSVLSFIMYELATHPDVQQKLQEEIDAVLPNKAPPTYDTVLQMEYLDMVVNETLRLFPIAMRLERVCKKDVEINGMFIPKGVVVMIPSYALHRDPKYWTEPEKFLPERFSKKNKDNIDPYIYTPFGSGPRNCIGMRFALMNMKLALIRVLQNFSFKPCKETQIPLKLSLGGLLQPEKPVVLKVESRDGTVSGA
measured_quantity: IC50 (µM)
Just the number please, in µM, no unit attached.

Field IC50 (Cytochrome P450 3A4 (Homo sapiens, UniProt P08684)), entry `C[C@@H](c1nc(-c2ccc(C#N)cc2)cs1)[C@](O)(Cn1cncn1)c1ccc(F)cc1F` : 1.01

====

# System: Aspergillus sp.
# protocol_text: Antifungal activity against Aspergillus sp
# Format: functional
# details: Aspergillus sp.; read-out: MIC
MIC for assorted compounds
Report the value in µg/mL with no unit label.

Kindly note the recorded MIC for C[C@@H](N1C(=O)N(c2ccc(-n3cnnn3)cc2)CC1O)[C@](O)(Cn1cncn1)c1ccc(F)cc1F (stereo in doubt; 140a) , which is 32

So, `C[C@@H](N1Cc2nc(-c3ccc(F)cc3)sc2C1=O)[C@](O)(Cn1cncn1)c1ccc(F)cc1F` ? Its MIC was 4

So for `C[C@@H](N1Cc2sc(Br)nc2C1=O)[C@](O)(Cn1cncn1)c1ccc(F)cc1F` , the logged MIC turned out to be 16

====

Let's look at some molecules and their measured ED50.
# Tested on: Candida albicans
# protocol_text: In vivo antifungal activity against Candida albicans infected in CDF1 mouse treated po 4 hrs after injection twice daily for 2 days measured on day 10
# Format: functional
# details: 48 h, time 2 day

Worked examples follow.
- smiles_repr: "C[C@@H](N1CCN(c2ccc(-n3cccn3)cc2)C1=O)[C@](O)(Cn1cncn1)c1ccc(F)cc1F"
  ED50: "2 mg/kg"
- smiles_repr: "C[C@@H](N1CCN(c2ccc(-n3cnnn3)cc2)C1=O)[C@](O)(Cn1cncn1)c1ccc(F)cc1F"
  ED50: "0.18 mg/kg"
- smiles_repr: "C[C@@H](N1CCN(c2ccc(-n3cncn3)cc2)C1=O)[C@](O)(Cn1cncn1)c1ccc(F)cc1F"
  ED50: "0.18 mg/kg"
- smiles_repr: "C[C@@H](N1CCN(c2ccc(-n3ncnn3)cc2)C1=O)[C@](O)(Cn1cncn1)c1ccc(F)cc1F"
  ED50: "0.18 mg/kg"
- smiles_repr: "C[C@@H](N1CCN(c2ccc(-n3ccnn3)cc2)C1=O)[C@](O)(Cn1cncn1)c1ccc(F)cc1F"
  ED50: "0.18 mg/kg"

# evaluate next
Summary for this molecule, `OC(Cn1cncn1)(Cn1cncn1)c1ccc(F)cc1F` : ED50 is 0.22 mg/kg

====

# Test system: Candida albicans
# protocol_text: In vivo antifungal activity against Candida albicans infected in CDF1 mouse treated po or iv immediately after infection measured on day 7
# Assay type: functional
# details: 168 h, time 7 day
Listing of recorded ED50 by entry.
# value in mg/kg; strip the unit string

- compound: "C[C@@H](N1CCN(c2ccc(-n3cnnn3)cc2)C1=O)[C@](O)(Cn1cncn1)c1ccc(F)cc1F"
  units: "mg/kg"
  ED50: 0.77
- compound: "CC(=O)OC[n+]1cnn(C[C@](O)(c2ccc(F)cc2F)[C@@H](C)N2CCN(c3ccc(-n4cnnn4)cc3)C2=O)c1.[Cl-]"
  units: "mg/kg"
  ED50: 0.62
- compound: "CCC(C)n1ncn(-c2ccc(N3CCN(c4ccc(OCC5COC(Cn6cncn6)(c6ccc(Cl)cc6Cl)O5)cc4)CC3)cc2)c1=O (centres undefined) [ITRACONAZOLE]"
  units: "mg/kg"
  ED50: 5.19

Let us examine a further case.
Lab book: ED50 of OC(Cn1cncn1)(Cn1cncn1)c1ccc(F)cc1F [FLUCONAZOLE] noted as 0.22

====

# protocol_text: Plasma protein binding in human
# Assay type: ADME, cell-free
# details: route po, read-out: PPB (converted)
measured_quantity: fraction unbound
The answer should be a number; do not append a unit.

Per the records, this molecule ( `C=C1CCN([C@H](C)[C@](O)(Cn2cncn2)c2ccc(F)cc2F)CC1` ) has fraction unbound equal to 0.04

====

# protocol_text: Oral bioavailability in monkey relative to control
# Format: ADME, organism-based, Macaca mulatta
# details: rhesus monkey, in vivo
measured_quantity: bioavailability (%)
# value in %; strip the unit string

bioavailability reading for `C[C@@H](c1nc(-c2ccc(C#N)cc2)cs1)[C@](O)(Cn1cncn1)c1cc(F)ccc1F` : 87

====

# System: Candida
# protocol_text: Antifungal activity against Candida spp.
# Type: functional
Property: MIC; scope: individual compounds
Reply with just the number (in µg/mL).

See these solved cases before continuing.
- smiles_repr: "C[C@@H](N1Cc2nc(-c3ccc(F)cc3)sc2C1=O)[C@](O)(Cn1cncn1)c1ccc(F)cc1F"
  MIC, µg/mL: 0.0156
- smiles_repr: "CC(C)Cn1ncn(-c2ccc(N3CCN([C@H](C)[C@](O)(Cn4cncn4)c4ccc(F)cc4F)CC3)nc2)c1=O"
  MIC, µg/mL: 0.03
- smiles_repr: "CC(C)n1ncn(-c2ccc(N3CCN([C@H](C)[C@](O)(Cn4cncn4)c4ccc(F)cc4F)CC3)cn2)c1=O"
  MIC, µg/mL: 0.25
- smiles_repr: "C[C@@H](N1Cc2sc(Br)nc2C1=O)[C@](O)(Cn1cncn1)c1ccc(F)cc1F"
  MIC, µg/mL: 0.0625
- smiles_repr: "C[C@@H](N1CCn2nc(-c3ccc(C#N)nc3)nc2C1)[C@](O)(Cn1cncn1)c1ccc(F)cc1F"
  MIC, µg/mL: 0.0078

The recorded MIC for `C[C@H](n1nnc(CCN2CCN(c3cccc(C(F)(F)F)c3)CC2)n1)[C@](O)(Cn1cncn1)c1ccc(F)cc1F` is 0.25
